Attribution: patent US6914045B2

Measured MIC Enterococcus faecalis (GC 6189) of individual entries
- Test system: Enterococcus sp.
- protocol description: in vitro antibacterial evaluation, MIC by broth dilution
- Assay type: cell-based
- condition context: broth dilution, inoculum 5×10^5 CFU/mL, 18 hours at 35° C.; strain GC 6189

[
  {
    "compound": "CC(c1ccccc1)C1NC(=O)CNC(=O)C(CO)NC(=O)C(C(O)C2CNC(=N)N2C2OC(CO)C(O)C(O)C2O)NC(=O)C(C(O)C2CNC(=N)N2)NC(=O)C(Cc2ccc(OC3OC(CO)C(OC4OC5COC(c6cccc(OCc7ccc([N+](=O)[O-])cc7)c6)OC5C(O)C4O)C(O)C3O)cc2)NC1=O (centres unmarked)",
    "MIC Enterococcus faecalis (GC 6189)": ">64 µg/mL"
  }
]

API: the following record is the query input.
Item under review: CC(C1CCCCC1)C1NC(=O)CNC(=O)C(CO)NC(=O)C(C(O)C2CNC(=N)N2C2OC(CO)C(O)C(O)C2O)NC(=O)C(C(O)C2CNC(=N)N2)NC(=O)C(Cc2ccc(OC3OC(CO)C(OC4OC5COC6(OC5C(O)C4O)C4CC5CC(C4)CC6C5)C(O)C3O)cc2)NC1=O (centres unmarked) . Reported MIC Enterococcus faecalis (GC 6189)?
1 µg/mL

====

- System: Staphylococcus sp.
- protocol description: in vitro antibacterial evaluation, MIC by broth dilution
- Format: cell-based
- condition context: broth dilution, 18 hours at 35° C.; strain GC 4549
measurement label: MIC Coagulase Negative Staphylococcus (GC 4549)

A selection of reference data follows.
[
  {
    "compound": "CC(c1ccccc1)C1NC(=O)CNC(=O)C(CO)NC(=O)C(C(O)C2CN(c3ncccn3)C(=N)N2C2OC(CO)C(O)C(O)C2O)NC(=O)C(C(O)C2CNC(=Nc3ncccn3)N2)NC(=O)C(Cc2ccc(OC3OC(CO)C(OC4OC5COC6(OC5C(O)C4O)C4CC5CC(C4)CC6C5)C(O)C3O)cc2)NC1=O (stereo not shown)",
    "value": "16 µg/mL"
  },
  {
    "compound": "CC(c1ccccc1)C1NC(=O)CNC(=O)C(CO)NC(=O)C(C(O)C2CNC(=N)N2C2OC(CO)C(O)C(O)C2O)NC(=O)C(C(O)C2CNC(=N)N2)NC(=O)C(Cc2ccc(OC3OC(CO)C(OC4OC(CO)C(O)C(O)C4O)C(O)C3O)c(N)c2)NC1=O (stereo not shown)",
    "value": ">64 µg/mL"
  },
  {
    "compound": "CCOc1cc(C2OCC3OC(OC4C(CO)OC(Oc5ccc(CC6NC(=O)C(C(C)c7ccccc7)NC(=O)CNC(=O)C(CO)NC(=O)C(C(O)C7CNC(=N)N7C7OC(CO)C(O)C(O)C7O)NC(=O)C(C(O)C7CNC(=N)N7)NC6=O)cc5)C(O)C4O)C(O)C(O)C3O2)ccc1OC (stereo not shown)",
    "value": "8 µg/mL"
  }
]

From here, focus on the item given below.
Can you look up the measured MIC Coagulase Negative Staphylococcus (GC 4549) of COc1cccc(C2OC3C(OC4C(CO)OC(Oc5ccc(CC6NC(=O)C(C(C)c7ccccc7)NC(=O)CNC(=O)C(CO)NC(=O)C(C(O)C7CNC(=N)N7C7OC(CO)C(O)C(O)C7O)NC(=O)C(C(O)C7CNC(=N)N7)NC6=O)cc5)C(O)C4O)OC(CO)C(O)C3O2)c1 (single isomer, unassigned) [Example 137b] for me?
8 µg/mL
